Every entry's value here was drawn from ChEMBL document CHEMBL4888484.

System: Plasmodium falciparum
Experiment: Confirmatory screen in NF54 pLDH assay, in single point, at 2uM, 72h
Format: functional, Erythrocyte
Settings: timepoint 72 hour
The whole screen tested about 4,800 compounds, of which about 410 (8.5%) showed an effect of 50% or more. For the sample, strong results were picked, then their nearest neighbours and some compounds at random.
So I've got a bunch of compounds here, and I need their % Inhibition values.
Give bare numbers, in %.

Worked examples, 3 compounds total:
Recorded % Inhibition (compound COc1ccc(-c2nccn3cc(C(=O)NCCN(C)C4CCCCC4)nc23)cc1 ): 5

Lab book: % Inhibition of Cc1ccc(OCc2cccc(C(=O)N3CCC[C@@H]3CN3CCCCC3)c2)cn1 noted as 9

// % Inhibition value for CCC(=O)Nc1nc2c(OC)cc(NS(=O)(=O)c3c(C)noc3C)cc2s1 : 10

Each compound below has a reported value. Please supply its % Inhibition.
1. Cn1cc(CCCNc2ccc(F)cn2)cn1
2. COc1ccnc(CN2CC[C@](C)(O)[C@H](O)C2)c1

Ans.
9
6

Kindly note the recorded % Inhibition for O=C(Nc1ccc(N2CCOCC2)cc1)Nc1ccc(F)cc1F , which is 7

====

Please provide measured % Inhibition for the entries that follow.
System: Plasmodium falciparum
Test: Confirmatory screen in NF54 pLDH assay, in single point, at 2uM, 72h
Type: functional, Erythrocyte
Conditions: timepoint 72 hour
The campaign covered roughly 4,800 compounds. About 410 (8.5%) showed an effect of 50% or more. This is one part of a sample in which strong results are shown more often than they occur.
Answers are plain numbers, in %.

Measured % Inhibition, CN(CCNC(=O)CCc1cn(-c2ccccc2)nc1-c1ccc2c(c1)OCO2)C1CCCCC1 : 49

Lab note: measured % Inhibition of COc1ccnc(NCc2ccc(N3CCOCC3)cc2)n1 was 10

Memo: CCn1nccc1C(=O)N1CC[C@H](CC(=O)NCc2ccncc2)C1 , reported % Inhibition: 6

For every item in the list below, what is its measured % Inhibition?
1. CC(=Cc1cn(C(C)(C)C)nn1)c1nc(C)c(C#N)c(=O)[nH]1
2. CN(CCCNC(=O)C(=O)Nc1ccn(C)n1)c1cccc(F)c1
3. O=C1C2ON(c3ccccc3)C(c3ccncc3)C2C(=O)N1c1ccc2ccccc2c1 (stereo not drawn)
4. Brc1cncnc1NC1CC1

Ans.
1. 10
2. 10
3. 8
4. 9

// input: 2 compounds below; output: % Inhibition for each
1. O=C1C2C3C=CC(C3=C3CCCCC3)C2C(=O)N1c1cccc(Cl)c1 (stereo not drawn)
2. COc1ccc(-[n+]2c(-c3ccccc3)cn3c2CCC3)cc1

Ans.
[15, 59]

Batch: % Inhibition for all items listed.
1. Cc1cc(NC(=O)[C@H](C)OC(=O)c2ccc3c(c2)OCC(=O)N3)on1
2. Cc1cc(=O)n2ncc(C(=O)Nc3ccc(F)cc3F)c2[nH]1
3. COc1ccc(Nc2nnc(/C=C/c3ccccc3)c(=O)n2N)cc1
4. COc1ccc(-c2cc(-c3ccccc3)nc(N3CCC(C)CC3)n2)cc1
5. Cc1cc(CCC(=O)Nc2nnn[nH]2)ccc1Br
6. Cc1ccc(-c2noc(CCC(=O)NC[C@H]3CCCO3)n2)c(=O)n1C(C)C
7. COc1ccc(CCc2nnc3n2CCOC3)cc1
8. Cc1ccc(C2=C[C@@H](c3ccc(Cl)cc3)n3nc(NC(=O)c4ccccc4)nc3N2)cc1

Ans.
[-19, 10, 16, 43, 10, 0, -1, 90]

Could I get % Inhibition for every one of these entries?
1. Cc1onc(C(=O)NCc2cnn(C)c2C)c1COc1cccc(C(F)(F)F)c1
2. O=C(Nc1cc(-c2onc3c2CCCC3)cc(C(F)(F)F)c1)c1cncc(Br)c1

Ans.
1: -4; 2: 95
